test-target: GST-RIPK2 fusion protein (human RIPK2, amino acids 1-310) (Homo sapiens, UniProt O43353)
Construct: made in house; host or cells: baculovirus infected Sf9 cells
Sequence (O43353 1-310): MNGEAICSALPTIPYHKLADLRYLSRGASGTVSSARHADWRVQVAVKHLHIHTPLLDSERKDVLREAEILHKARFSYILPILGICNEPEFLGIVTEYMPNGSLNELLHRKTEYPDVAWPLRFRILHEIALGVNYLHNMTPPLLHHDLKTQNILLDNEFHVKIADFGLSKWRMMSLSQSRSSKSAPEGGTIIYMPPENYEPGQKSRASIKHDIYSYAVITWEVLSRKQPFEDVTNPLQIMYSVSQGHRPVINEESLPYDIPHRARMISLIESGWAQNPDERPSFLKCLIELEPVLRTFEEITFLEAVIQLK
assay-info: RIPK2 binding competition assay (TR-FRET, Tracer 199 displacement)
setup-conditions: 10 nM Tracer 199, 1 nM GST-RIPK2, read-out: RIPK2 IC50
pIC50: −log10 of the molar value.
property: pIC50

Past entries and their recorded results:
> print(dat)
                                   molecule                               test.target     obs.value
1  COc1cc2ncc(-c3cnc4c(c3)OCCN4)n2cc1S(=O)(=O)C(C)(C)C  GST-RIPK2 fusion protein (human RIPK2, amino acids 1-310) (Homo sapiens, UniProt O43353)        < 7.70
2  CCS(=O)(=O)Nc1cc(-c2cnc3cc(OC)c(C(=O)N4CCOCC4)cn23)cc(F)c1OC  GST-RIPK2 fusion protein (human RIPK2, amino acids 1-310) (Homo sapiens, UniProt O43353)        < 7.70
3  C[C@H](O)COc1cc2ncc(-c3cc(F)c(N)nc3F)n2cc1S(=O)(=O)C(C)(C)C  GST-RIPK2 fusion protein (human RIPK2, amino acids 1-310) (Homo sapiens, UniProt O43353)  8.60 to 9.00
4  COc1cc2ncc(-c3cc(F)c(N)nc3F)n2cc1C1CCCN(C)C1=O (stereo not shown)  GST-RIPK2 fusion protein (human RIPK2, amino acids 1-310) (Homo sapiens, UniProt O43353)        < 7.70
5  C[C@@H](CO)COc1cn2ncc(-c3cc(F)c(N)nc3F)c2cc1S(=O)(=O)C(C)(C)C  GST-RIPK2 fusion protein (human RIPK2, amino acids 1-310) (Homo sapiens, UniProt O43353)        > 9.00
6  CCCS(=O)(=O)Nc1cc(-c2cnc3cc(OC)c(C4(O)CCOCC4)cn23)cc(F)c1OC  GST-RIPK2 fusion protein (human RIPK2, amino acids 1-310) (Homo sapiens, UniProt O43353)  8.60 to 9.00

# return pIC50 for each item in the list
1. COc1cc2ncc(-c3ccc4oc(N)nc4c3)n2cc1S(=O)(=O)C(C)(C)C
2. COc1cn2ncc(-c3cc(F)c(N)nc3F)c2nc1N1C(=O)OCC1(C)C

1: < 7.70; 2: < 7.70

# return pIC50 for each item in the list
1. CC(C)(C)S(=O)(=O)c1cn2c(-c3cc(F)c(N)nc3F)cnc2cc1OCCN1CCOCC1
2. COC1(COc2cc3ncc(-c4cc(F)c(N)nc4F)n3cc2S(=O)(=O)C(C)(C)C)COC1
3. COc1c(F)cc(-c2cnc3cc(OC[C@@H](C)O)c(S(=O)(=O)C(C)(C)C)cn23)cc1NS(=O)(=O)c1cnn(C)c1

["7.70 to 8.60", "7.70 to 8.60", "8.60 to 9.00"]

# return pIC50 for each item in the list
1. CC(C)(C)S(=O)(=O)c1cn2c(-c3cc(F)c(N)nc3F)cnc2cc1OCCn1cccn1
2. CC(C)(C)S(=O)(=O)c1cc2c(-c3cc(F)c(N)nc3F)cnn2cc1OCCO
3. CC(N)COc1cc2ncc(-c3cc(Cl)c(N)nc3F)n2cc1S(=O)(=O)C(C)(C)C (stereo not shown)
4. COc1cc2ncc(-c3cc(F)c(N)nc3F)n2cc1S(=O)(=O)C1(C)CC1
5. CCS(=O)(=O)Nc1cc(-c2cnn3cc(OCCO)c(S(=O)(=O)C(C)(C)C)cc23)cc(F)c1OC

["7.70 to 8.60", "8.60 to 9.00", "7.70 to 8.60", "< 7.70", "> 9.00"]
